- Test system: DU-145 prostate
- protocol_description: NCI-60 one-dose screen, 48 h
- experimental_setup: 10 µM unless noted
About 83,000 compounds went through this panel and 20% of them were active in at least one assay; those are over-represented in the sample as a whole. The source made the active and inactive calls. Rule for the calls: active = growth percent below 10; inactive = the rest.
# output must be one of active, inactive

Some entries whose results are on file:
{"columns": ["molecule", "label"],
 "data": [
  ["COc1cccc(/C=C/C(=O)Nc2cc(OC)c3c(c2)OCO3)c1", "inactive"],
  ["COC1=C(OC)C(=O)C(CCCCCCCCCC[P+](c2ccccc2)(c2ccccc2)c2ccccc2)=C(C)C1=O", "active"],
  ["O=C(CN1CCN(c2cc3c(cc2F)c(=O)c(C(=O)N/N=C/c2ccccc2O)cn3C2CC2)CC1)N/N=C\\c1ccccc1O", "inactive"],
  ["CN(CCCCN(C[C@H]1Cc2ncccc2CN1)[C@H]1CCCc2cccnc21)C1CCC(F)(F)CC1", "inactive"]
]}

Hey, what did the test say about Nc1nc(Nc2cc(Cl)cc(Cl)c2)nn1S(=O)(=O)c1ccc2ccccc2c1 ?
inactive

Hey, what did the test say about O=C(Nc1ccncc1)C(=O)c1cn(S(=O)(=O)c2ccc(Cl)cc2)c2ccccc12 ?
inactive

Hey, what did the test say about Cc1ccc2[nH]c(=O)c3c(c2c1)Oc1ncn2nc(-c4ccco4)nc2c1C3c1ccc(Cl)cc1 (stereo not given) ?
inactive

Hey, what did the test say about COC(=O)c1cc2cc(-c3ccc(OC)cc3)cnc2[nH]1 ?
inactive

Hey, what did the test say about COc1ccc(S(=O)(=O)NCCCNc2nccc(-c3c(-c4cccc([N+](=O)[O-])c4)nc4sccn34)n2)cc1 ?
inactive

Hey, what did the test say about COc1ccc(-c2cc3c(OC)c(OC)c(OC)cc3oc2=O)cc1 ?
inactive

Hey, what did the test say about C=C1CCC2C3(C)COC(c4ccccc4)OC3CCC2(C)C1/C=C/C1=CCOC1=O (stereo not given) ?
inactive

Hey, what did the test say about COc1ccc2c(c1)C(c1cc(OC)c3c(c1)OCO3)C1=C(COC1=O)N2 (stereo not given) ?
active

Hey, what did the test say about Oc1ccc2cc(Br)ccc2c1-c1c(O)ccc2cc(Br)ccc12 ?
inactive

Hey, what did the test say about O=C1c2c(c3c4ccccc4n(CCCCCCBr)c3c3[nH]c4ccccc4c23)C(=O)N1O ?
inactive

Hey, what did the test say about O=C(Nc1ccc2c(c1)OCCO2)C(=O)c1c[nH]c2ccccc12 ?
active

Hey, what did the test say about FC(F)(F)c1cccc(-c2cn3c(ccc4ccccc43)n2)c1 ?
inactive

* * *

- Test system: HCT-116 colon
- protocol_description: NCI-60 one-dose screen, 48 h (100 = growth as untreated, 0 = no growth, -100 = all killed)
- experimental_setup: 10 µM unless noted
- Experimental: Growth inhibition of the HCT-116 human tumor cell line is measured as a screen for anti-cancer activity. Cells are grown in 96 well plates and exposed to the test compound for 48 hours. Compounds are tested at a single concentration, which is 10^-5 M for most compounds. The reported endpoint is percent growth (GI% or GIPRCNT), where numbers from 0 - 100% represent growth inhibition, and numbers from -100% - 0 represent cell death. For example, a value of 40 represents 60% growth inhibition. […]
The panel holds about 83,000 compounds, 20% with a hit somewhere; the sample as a whole holds those more often.
So I've got a bunch of molecules here, and I need their growth values.
Give bare numbers, in %.

Sample answers from the record:
{"columns": ["molecule", "target_or_system", "val"],
 "data": [
  ["COC(=O)C1CCCN1C(=O)[C@@H]1CCCN1C(=O)[C@H](Cc1c[nH]c2ccccc12)NC(=S)Nc1cc(C(F)(F)F)cc(C(F)(F)F)c1 (some centres undefined)", "HCT-116 colon", 37.3],
  ["COc1ccc(CNCCCN2C(=O)c3ccc4c5c(ccc(c35)C2=O)C(=O)N(CCCNCCCCNCCCN)C4=O)c(OC)c1OC", "HCT-116 colon", 6.94],
  ["O=[N+]([O-])c1ccc(C(c2ccccc2)c2ccccc2)cc1", "HCT-116 colon", 70.4]
]}

Now consider a different molecule.
Entry under review: COc1ccc(Nc2nc(N)nc3c2CCN(Cc2ccc(OC)cc2OC)C3=O)cc1 . Reported growth?
49.9

* * *

- Test system: SK-MEL-5 melanoma
- protocol_description: NCI-60 one-dose screen, 48 h (100 = growth as untreated, 0 = no growth, -100 = all killed)
- experimental_setup: 10 µM unless noted
This is part of a sample that, as a whole, favours compounds with a hit. Of some 83,000 tested, about 20% had one in any assay.
property: growth (%)
Numbers only, in %.

Sample answers from the record:
{"columns": ["compound", "growth, %"],
 "data": [
  ["O=C(Nc1ccc2c(c1)OCO2)C(=O)c1c[nH]c2cc(F)ccc12", 58],
  ["O=C(Nc1ccncc1)C(=O)c1cn(S(=O)(=O)c2ccc(Br)cc2)c2ccccc12", 14.5],
  ["CCOc1cc2c(Cl)ncnc2c(OCC)c1OCC", 77.4]
]}

State the recorded growth for every item in the following list.
1. COC(=O)C1CCCN1C(=O)[C@@H]1CCCN1C(=O)[C@H](Cc1c[nH]c2ccccc12)NC(=S)Nc1cc(C(F)(F)F)cc(C(F)(F)F)c1 (stereo not given in full)
2. CN1CCN(Cc2ccc(NC(=O)c3nc4ccc5[nH]ncc5c4c4c3CCC4)cc2C(F)(F)F)CC1

58.1
88.5

* * *

- Test system: SN12C renal
- protocol_description: NCI-60 one-dose screen, 48 h
- experimental_setup: 10 µM unless noted
This is part of a sample that, as a whole, favours compounds with a hit. Of some 83,000 tested, about 20% had one in any assay. Activity calls are given as the source filed them. How the source made its calls: active means growth percent below 10; inactive means the rest.
# output must be one of true (1) for active, false (0) for inactive

Some entries whose results are on file:
{"columns": ["molecule", "label"],
 "data": [
  ["COc1ccc(/C=C\\c2cc(OC)c(OC)c(OC)c2)cc1OC(=O)c1cccc(Cn2cc(CCOC(=O)c3cccc(Cn4nnc5c4C(=O)c4ccccc4C5=O)c3)nn2)c1", "false (0)"],
  ["CC1=NC2=CC=CC3=NC(C(Cl)(Cl)Cl)=NC(=N1)N23", "false (0)"],
  ["CC[N+](CC)=c1cc2oc3cc(N(C)C)ccc3nc-2cc1C", "true (1)"],
  ["C=C[C@@H]1C[C@@H]2Cc3ccccc3N1O2", "false (0)"],
  ["COC1=C(OC)C(=O)C(CCCCCCCCCC[P+](c2ccccc2)(c2ccccc2)c2ccccc2)=C(C)C1=O", "true (1)"]
]}

Hey, what did the test say about Cc1cc(C)n(-c2nnc3n2N=C(c2ccc(-c4ccccc4)cc2)CS3)n1 ?
false (0)

Hey, what did the test say about NC1=NN(O)C2=CC([N+](=O)[O-])C=CC2=N1 (centres undefined) ?
false (0)

Hey, what did the test say about COc1ccc(/C=C2\CN(Cc3cn(CCNc4ccnc5cc(Cl)ccc45)nn3)C/C(=C\c3ccc(OC)c(OC)c3)C2=O)cc1OC ?
true (1)

Hey, what did the test say about COC(=O)C1CCCN1C(=O)[C@@H]1CCCN1C(=O)[C@H](Cc1c[nH]c2ccccc12)NC(=S)Nc1cc(C(F)(F)F)cc(C(F)(F)F)c1 (some centres undefined) ?
false (0)

Hey, what did the test say about O=C(Nc1ccncc1)C(=O)c1cn(S(=O)(=O)c2ccc(Oc3ccccc3)cc2)c2ccccc12 ?
false (0)

Hey, what did the test say about CC(=O)c1cc2c(N)c(C(=O)Nc3cccc4c3OCCO4)sc2nc1C ?
false (0)

Hey, what did the test say about CC(=O)Oc1csc(N(C(C)=O)c2cccc(C(F)(F)F)c2)n1 ?
false (0)

Hey, what did the test say about CN(C[C@H]1Cc2c(cccc2N2CCN(c3ncccn3)CC2)CN1)[C@H]1CCCc2cccnc21 ?
false (0)

Hey, what did the test say about CCc1ccc(-c2ccc(=O)n(-c3ccc(S(N)(=O)=O)cc3)n2)cc1 ?
false (0)

Hey, what did the test say about C/C=C(\C)C(C(=O)NC1CCCCC1)N(C(=O)C1CCc2cc(F)ccc2O1)c1ccc(Cl)cc1 (centres undefined) ?
false (0)

Hey, what did the test say about CC(C)(C)Nc1c(-c2cccs2)nc2ncccn12 ?
false (0)

Hey, what did the test say about COc1cccc(CC(C)=C(c2ccc(OCCN(C)C)cc2)c2ccc(OCCN(C)C)cc2)c1 ?
true (1)

Hey, what did the test say about CC(C)(C)n1cc(-c2ccnc(NCCNS(=O)(=O)c3ccc(C(F)(F)F)cc3)c2)c(-c2cccc(O)c2)n1 ?
false (0)

Hey, what did the test say about Nc1nc(=O)c2ccccc2s1 ?
false (0)

* * *

So I've got a bunch of compounds here, and I need their growth values.
- Test system: SK-MEL-5 melanoma
- protocol_description: NCI-60 one-dose screen, 48 h (100 = growth as untreated, 0 = no growth, -100 = all killed)
- experimental_setup: 10 µM unless noted
This is part of a sample that, as a whole, favours compounds with a hit. Of some 83,000 tested, about 20% had one in any assay. Active and inactive are the calls of the source. The calls were made as follows: active = growth percent below 10; inactive = the rest.

{"columns": ["compound", "property", "val"],
 "data": [
  ["COc1ccc(S(=O)(=O)NCCCNc2nccc(-c3c(-c4cccc([N+](=O)[O-])c4)nc4sccn34)n2)cc1", "growth", "-20.5% (active)"],
  ["COc1cccc(CC(C)=C(c2ccc(OCCN3CCCCC3)cc2)c2ccc(OCCN3CCCCC3)cc2)c1", "growth", "-96% (active)"],
  ["Cc1ccc(Cc2c(C=O)nc(N)[nH]c2=O)c2ccccc12", "growth", "107% (inactive)"],
  ["COc1cc(/C=C/C(=O)/C=C/c2cc(OC)c3c(c2)OCO3)cc2c1OCO2", "growth", "80.9% (inactive)"],
  ["Cc1ccc(C(=O)C2=Cc3cc4ccccc4n3Cc3cnnn32)cc1", "growth", "93.5% (inactive)"]
]}

State the recorded growth for every item in the following list.
1. O=C(c1ccccc1)c1c(/C=C/c2ccccc2)c2ccccc2[nH]c1=O
2. O=[N+]([O-])c1cnc(Sc2ccncn2)s1

96.4% (inactive)
88.2% (inactive)

State the recorded growth for every item in the following list.
1. CCN(CC)CCC(CNc1ccnc2cc(Cl)ccc12)c1ccccc1 (stereo not given)
2. COc1cc(-c2nn(-c3cccc(NC(=O)Nc4cccc(C(F)(F)F)c4)c3)cc2-c2ccncc2)ccc1Cl
3. CCOC(=O)c1ccc2c(c1)nc(-c1ccc(OCc3ccccc3)c(OC)c1)n2-c1cc(C(C)(C)C)[nH]n1
4. Nc1nc(=O)c2ccccc2s1
5. C=C1c2nc3ccccc3n2C=C(c2ccc(Cl)cc2)N1Cc1ccccc1

-75.2% (active)
-97.8% (active)
65.3% (inactive)
116% (inactive)
79.1% (inactive)

State the recorded growth for every item in the following list.
1. Oc1ccccc1/C=N/NC(=S)NC1CC2C=CC1C2 (stereo not given)
2. COc1ccc(/C=C2\CN(Cc3cn(CCNc4ccnc5cc(Cl)ccc45)nn3)C/C(=C\c3ccc(OC)c(OC)c3)C2=O)cc1OC
3. Nc1nc(Nc2cc(Cl)cc(Cl)c2)nn1S(=O)(=O)c1ccc2ccccc2c1

1: 78.3% (inactive); 2: 10.8% (inactive); 3: 86.5% (inactive)

State the recorded growth for every item in the following list.
1. O=C1CS/C(=N\Nc2cc(=O)[nH]c3ccccc23)N1c1ccccc1
2. COc1ccc(-c2cn(-c3cccc(C(=O)/C=C/c4cc(OC)c(OC)c(OC)c4)c3)c(=O)[nH]2)cc1OC
3. O=S(=O)(NCCNc1nccc(-c2c(-c3ccc(F)cc3)nc3sccn23)n1)c1ccc(F)cc1
4. Nc1ncnc2c1c(-c1ccc(Oc3ccccc3)cc1)nn2C[C@@H]1SSC[C@@H]1O
5. OCCCCCCNc1ncnc2cc(Cl)ccc12

1. 96.2% (inactive)
2. 88.3% (inactive)
3. 70.8% (inactive)
4. -86.4% (active)
5. 94.1% (inactive)
